So I've got a bunch of compounds here, and I need their Activity values.
Biological target: Cannabinoid receptor 1 (Homo sapiens)
Experiment: Antagonist activity at human CB1 receptor expressed in CHO cells assessed as forskolin-induced cAMP accumulation per ug of protein at 10 uM in presence of WIN-55212-2
Format: functional, cell-based

**Q:** Which measured Activity value corresponds to CN/C(=N/S(=O)(=O)c1ccc(Cl)cc1)C1CN(c2ccccc2)C(c2ccc(Cl)cc2)=N1 (stereo not given) ?
**A:** 1.22 pmol

**Q:** Which measured Activity value corresponds to `CN/C(=N/S(=O)(=O)c1ccc(Cl)cc1)c1cn(-c2ccc(Cl)cc2)c(-c2ccccc2)n1` ?
**A:** 0.55 pmol

**Q:** Which measured Activity value corresponds to CN/C(=N/S(=O)(=O)c1ccc(Cl)cc1)C1CN(c2ccc(Cl)cc2)C(c2ccccc2)=N1 (stereo not given) ?
**A:** 0.94 pmol

**Q:** Which measured Activity value corresponds to `CN/C(=N/S(=O)(=O)c1ccc(Cl)cc1)c1nc(-c2ccccc2)c(-c2ccc(Cl)cc2)o1` ?
**A:** 0.6 pmol

**Q:** Which measured Activity value corresponds to `CN/C(=N/S(=O)(=O)c1ccc(Cl)cc1)c1nc(-c2ccc(Cl)cc2)c(-c2ccccc2)o1` ?
**A:** 1.3 pmol
